Target: M2 -type muscarinic cholinergic receptor (Cavia porcellus)
Construct: on a smooth guinea-pig ileum muscle homogenate; from tissue; host or cells: guinea-pig ileum smooth muscle homogenate
Assay: Affinity for the M2-type muscarinic cholinergic receptor, displacement of tritiated N-methylscopolamine (3H-NMS) on smooth guinea-pig ileum muscle homogenate
Type: binding
Conditions: guinea-pig ileum smooth muscle homogenate, 3H-NMS 0.3 nM, 20 minutes at 30° C., pH 7.5; read-out: IC50 3H-NMS (M2)
endpoint: pIC50
Please note pIC50 is a logarithmic value: minus log10 of concentration in mol/L. Answer with that number alone.

>  <compound>
CCN(CC)CCNc1nc(-c2ccccc2)c(-c2ccccc2)s1

>  <endpoint>
pIC50

>  <numeric_value>
5.52

$$$$

Report pIC50 for CN(C)CCCNc1nc(-c2ccccc2)c(-c2ccccc2)s1 please.
5.40

Report pIC50 for CCN(CC)CCCNc1nc(C)c(-c2ccccc2)s1 please.
4.82

Report pIC50 for CCN(CC)CCNc1ncc(-c2ccccc2)s1.Cl.Cl [SR 44318 A, dihydrochloride] please.
4.42

====

Molecular target: M1 -type muscarinic cholinergic receptor (Rattus norvegicus)
Assay: biochemical
Assay type: binding
Conditions: selectivity; values correspond to IC50 M2 / IC50 M1
ratio R of the IC50 values for the M1 and M2 receptors under 10 gets Yes, anything at or over 10 gets No.

I'd appreciate it if you could check whether Cc1cc(C)c(-c2csc(NCc3cccnc3)n2)c(C)c1 has ratio R of the IC50 values for the M1 and M2 receptors smaller than 10.
No

I'd appreciate it if you could check whether c1ccc2cc(-c3csc(NCCN4CCCCC4)n3)ccc2c1 has ratio R of the IC50 values for the M1 and M2 receptors smaller than 10.
No

I'd appreciate it if you could check whether Cc1cc(C)c(-c2csc(NCCCN(C)C)n2)c(C)c1 has ratio R of the IC50 values for the M1 and M2 receptors smaller than 10.
No

I'd appreciate it if you could check whether CCN1CCCC(Nc2nc(-c3c(C)cc(C)cc3C)cs2)C1 (stereo not shown) has ratio R of the IC50 values for the M1 and M2 receptors smaller than 10.
No

I'd appreciate it if you could check whether CCN(CC)CCCNc1ncc(-c2ccccc2)s1 has ratio R of the IC50 values for the M1 and M2 receptors smaller than 10.
No

I'd appreciate it if you could check whether c1ccc(-c2csc(NCCCN3CCOCC3)n2)cc1 has ratio R of the IC50 values for the M1 and M2 receptors smaller than 10.
Yes

====

Reported ratio R of the IC50 values for the M1 and M2 receptors values follow for various molecules
Molecular target: M1 -type muscarinic cholinergic receptor (Rattus norvegicus)
Experiment: biochemical
Format: binding
Conditions: selectivity; values correspond to IC50 M2 / IC50 M1
Could you keep your reply to the number by itself?

Some solved entries appear below for comparison.
>  <chem_smiles>
CCN(CC)CCNc1nc2c(s1)CCCc1ccccc1-2

>  <test_target>
M1 -type muscarinic cholinergic receptor (Rattus norvegicus)

>  <numeric_value>
5

$$$$
>  <chem_smiles>
Cc1nc(NCCN(C(C)C)C(C)C)sc1-c1ccccc1

>  <test_target>
M1 -type muscarinic cholinergic receptor (Rattus norvegicus)

>  <numeric_value>
6

$$$$
>  <chem_smiles>
CCN(CC)CCNc1nc(-c2ccccc2)cs1

>  <test_target>
M1 -type muscarinic cholinergic receptor (Rattus norvegicus)

>  <numeric_value>
16

$$$$
>  <chem_smiles>
CCCCN(CCCC)CCNc1ncc(-c2ccccc2)s1

>  <test_target>
M1 -type muscarinic cholinergic receptor (Rattus norvegicus)

>  <numeric_value>
8

$$$$

Report ratio R of the IC50 values for the M1 and M2 receptors for CCN(CC)CCCNc1nc(-c2ccccc2)c(-c2ccccc2)s1 please.
8

====

Target: M2 -type muscarinic cholinergic receptor (Cavia porcellus, UniProt H0VRN8)
Construct: on a smooth guinea-pig ileum muscle homogenate; from tissue; host or cells: guinea-pig ileum smooth muscle homogenate
Sequence (H0VRN8 1-466): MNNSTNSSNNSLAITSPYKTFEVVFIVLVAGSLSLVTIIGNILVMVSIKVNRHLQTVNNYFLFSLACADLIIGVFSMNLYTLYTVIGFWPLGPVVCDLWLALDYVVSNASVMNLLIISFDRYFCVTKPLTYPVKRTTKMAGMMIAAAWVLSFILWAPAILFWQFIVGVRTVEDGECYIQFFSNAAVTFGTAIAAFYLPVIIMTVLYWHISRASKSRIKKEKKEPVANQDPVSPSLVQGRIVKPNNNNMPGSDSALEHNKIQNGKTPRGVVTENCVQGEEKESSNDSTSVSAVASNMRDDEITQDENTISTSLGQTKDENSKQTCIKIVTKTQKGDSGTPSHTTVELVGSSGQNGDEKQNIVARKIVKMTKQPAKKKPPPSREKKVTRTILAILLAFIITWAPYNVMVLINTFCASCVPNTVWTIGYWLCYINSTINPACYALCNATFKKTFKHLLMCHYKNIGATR
Test: Affinity for the M2-type muscarinic cholinergic receptor, displacement of tritiated N-methylscopolamine (3H-NMS) on smooth guinea-pig ileum muscle homogenate
Type: binding
Settings: guinea-pig ileum smooth muscle homogenate, 3H-NMS 0.3 nM, 20 minutes at 30° C., pH 7.5; read-out: IC50 3H-NMS (M2)
Description: The M1 -type receptors are concentrated in certain regions of the brain, such as the hippocampus, the cerebral cortex and the striatum, and also in the sympathetic ganglia. […] The selectivity of the products of the invention with respect to the M1 and M2 sites was determined by studying their in vitro interaction with ^3 H-PZ and ^3 H-NMS firmly bound with a high affinity to rat hippocampus membranes and smooth guinea-pig ileum muscle, respectively. […]
endpoint: IC50 (µM)
The answer is to be given in µM; state only the numeric part.

Some solved entries appear below for comparison.
>  <chem_smiles>
CCN(CC)CCNc1nc(C23CC4CC(CC(C4)C2)C3)cs1

>  <test_target>
M2 -type muscarinic cholinergic receptor (Cavia porcellus, UniProt H0VRN8)

>  <IC50 [µM]>
22

$$$$
>  <chem_smiles>
CN(C)CCCNc1nc(-c2ccc(Cl)cc2Cl)cs1

>  <test_target>
M2 -type muscarinic cholinergic receptor (Cavia porcellus, UniProt H0VRN8)

>  <IC50 [µM]>
26

$$$$
>  <chem_smiles>
Cc1ccccc1-c1csc(NCCCN(C)C)n1

>  <test_target>
M2 -type muscarinic cholinergic receptor (Cavia porcellus, UniProt H0VRN8)

>  <IC50 [µM]>
30

$$$$

# evaluate next
Report IC50 for CCN(CC)CCCNc1nc(-c2ccccc2)c(C)s1 please.
70

====

Target: M2 -type muscarinic cholinergic receptor (Cavia porcellus)
Construct: on a smooth guinea-pig ileum muscle homogenate; from tissue; host or cells: guinea-pig ileum smooth muscle homogenate
Assay: Affinity for the M2-type muscarinic cholinergic receptor, displacement of tritiated N-methylscopolamine (3H-NMS) on smooth guinea-pig ileum muscle homogenate
Format: binding
endpoint: pIC50
Please note pIC50 is a logarithmic value: minus log10 of concentration in mol/L. Answer with that number alone.

>  <compound>
O=C1CCCN1CC#CCN1CCCC1 [Oxotremorine, reference compound]

>  <numeric_value>
6.70

$$$$

# evaluate next
Report pIC50 for COC(=O)C1=CCCN(C)C1 [Arecoline, reference compound] please.
5.35

====

Molecular target: M1 -type muscarinic cholinergic receptor (Rattus norvegicus, UniProt P08482)
Experiment: biochemical
Format: binding
Conditions: rat hippocampus homogenate, 3H-PZ 1 nM, 2 hours at 4° C., pH 7.40; read-out: IC50 3H-PZ (M1)
Reported IC50 values follow for various molecules

Report IC50 for CCN(CC)CCNc1nc2c(s1)CCc1ccccc1-2 please.
2.7 µM

Report IC50 for Cc1ccc(-c2csc(NCCCN(C)C)n2)cc1 please.
2.4 µM

Report IC50 for CCN(CC)CCNc1nc(C)cs1 please.
8.1 µM

====

Target: M2 -type muscarinic cholinergic receptor (Cavia porcellus, UniProt H0VRN8)
Construct: on a smooth guinea-pig ileum muscle homogenate; from tissue; host or cells: guinea-pig ileum smooth muscle homogenate
Assay: Affinity for the M2-type muscarinic cholinergic receptor, displacement of tritiated N-methylscopolamine (3H-NMS) on smooth guinea-pig ileum muscle homogenate
Type: binding
Conditions: guinea-pig ileum smooth muscle homogenate, 3H-NMS 0.3 nM, 20 minutes at 30° C., pH 7.5; read-out: IC50 3H-NMS (M2)
IC50 under 8 µM gets Satisfied, anything at or over 8 µM gets Not satisfied.

>  <molecule>
Cc1sc(NCCCN)nc1-c1ccccc1.Cl.Cl [SR 44514 A, dihydrochloride]

>  <qualitative_label>
Not satisfied

$$$$

I'd appreciate it if you could check whether CCc1nc(NCCCN(CC)CC)sc1-c1ccccc1 has IC50 smaller than 8 µM.
Satisfied

I'd appreciate it if you could check whether Cc1cc(C)c(-c2csc(NCCCN3CCCC3)n2)c(C)c1 has IC50 smaller than 8 µM.
Not satisfied

I'd appreciate it if you could check whether c1ccc(-c2nc(NCCc3ccccn3)sc2-c2ccccc2)cc1 has IC50 smaller than 8 µM.
Not satisfied

I'd appreciate it if you could check whether CCN(CC)CCNc1nc2c(s1)CCc1ccccc1-2 has IC50 smaller than 8 µM.
Not satisfied

I'd appreciate it if you could check whether CN(C)CCCNc1nc(-c2ccc(F)cc2F)cs1 has IC50 smaller than 8 µM.
Not satisfied

I'd appreciate it if you could check whether CCN(CC)CCCNc1nc(-c2ccccc2)c(-c2ccccc2)s1 has IC50 smaller than 8 µM.
Satisfied

====

Biological target: M1 -type muscarinic cholinergic receptor (Rattus norvegicus)
Sequence (P08482 1-460): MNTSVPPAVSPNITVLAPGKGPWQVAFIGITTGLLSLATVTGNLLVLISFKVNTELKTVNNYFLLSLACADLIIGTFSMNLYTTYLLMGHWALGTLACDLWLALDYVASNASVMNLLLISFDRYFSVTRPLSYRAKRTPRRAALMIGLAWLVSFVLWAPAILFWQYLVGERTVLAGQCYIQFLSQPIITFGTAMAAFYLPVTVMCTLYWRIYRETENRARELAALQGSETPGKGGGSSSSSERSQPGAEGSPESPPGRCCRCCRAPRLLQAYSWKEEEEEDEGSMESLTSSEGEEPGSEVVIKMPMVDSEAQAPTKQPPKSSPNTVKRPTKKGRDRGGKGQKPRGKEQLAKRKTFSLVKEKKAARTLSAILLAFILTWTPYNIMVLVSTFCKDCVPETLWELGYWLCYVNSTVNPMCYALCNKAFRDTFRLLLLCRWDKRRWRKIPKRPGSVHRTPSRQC
Assay: biochemical
Format: binding
Settings: selectivity; values correspond to IC50 M2 / IC50 M1
Reported ratio R of the IC50 values for the M1 and M2 receptors values follow for various molecules
Could you keep your reply to the number by itself?

>  <molecule>
CC(C)N(CCNc1ncc(-c2ccccc2)s1)C(C)C

>  <test_target>
M1 -type muscarinic cholinergic receptor (Rattus norvegicus)

>  <numeric_value>
10

$$$$

Report ratio R of the IC50 values for the M1 and M2 receptors for COc1ccccc1-c1csc(NCCCN(C)C)n1 please.
15

Report ratio R of the IC50 values for the M1 and M2 receptors for CN1CCCC1CCNc1nc(-c2ccc(F)cc2)cs1 (centres unmarked) please.
67

Report ratio R of the IC50 values for the M1 and M2 receptors for CCN(CC)CCNc1nc(-c2ccc([N+](=O)[O-])cc2)cs1 please.
23

Report ratio R of the IC50 values for the M1 and M2 receptors for CN(C)CCCNc1nc2c(s1)CCCc1ccccc1-2 please.
20

Report ratio R of the IC50 values for the M1 and M2 receptors for CCN(CC)CCNc1nc(C23CC4CC(CC(C4)C2)C3)cs1 please.
18

Report ratio R of the IC50 values for the M1 and M2 receptors for Cc1cc(C)c(-c2csc(NCCCN3CCCC3)n2)c(C)c1 please.
31
